These measurements were taken from PubChem BioAssay.

Entries annotated with measured composite z-score
target: Follistatin-related protein 3 (Homo sapiens) (UniProt O95633); test: FSTL3 binders on small-molecule microarrays, primary screen, biochemical, small-molecule microarray, 635 nm fluorescence (AID 1105); details: FSTL3 binding, higher = more signal;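 note: score merges emission near 667 nm and signal to noise per printed spot across three slides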
Sequence (O95633 whole entry, looked up): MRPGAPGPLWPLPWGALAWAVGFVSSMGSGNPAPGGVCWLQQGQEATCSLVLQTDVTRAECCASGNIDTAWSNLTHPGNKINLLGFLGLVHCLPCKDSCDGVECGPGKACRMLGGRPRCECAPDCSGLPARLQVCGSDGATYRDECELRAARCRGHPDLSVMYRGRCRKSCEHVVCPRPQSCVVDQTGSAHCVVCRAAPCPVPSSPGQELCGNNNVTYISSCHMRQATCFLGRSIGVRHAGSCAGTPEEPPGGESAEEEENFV
quantity: composite z-score

molecule	target-system	quantity	result
C=CC[C@]1(C(=O)NCc2ccccc2)N=C(c2ccc(OCCCO)cc2)O[C@H]1c1ccccc1	Follistatin-related protein 3 (Homo sapiens) (UniProt O95633)	composite z-score	0.291
CC(C)C[C@@H]1NC(=O)[C@H]2C[C@@H](C(=O)NCCCCCCN(C)C)[C@@H](c3cccc(OCCO)c3)N2C1=O	Follistatin-related protein 3 (Homo sapiens) (UniProt O95633)	composite z-score	1.35
C/C=C\[C@@H](NCc1ccccc1Br)[C@@H](O)Cc1ccccc1	Follistatin-related protein 3 (Homo sapiens) (UniProt O95633)	composite z-score	-1.69
CC1CC/C=C\[C@H]2OC34C=CCN(Cn5nnc6ccccc65)C(=O)[C@H]3N(CCO)C(=O)[C@@H]4C2C(=O)O1 (stereo not given in full)	Follistatin-related protein 3 (Homo sapiens) (UniProt O95633)	composite z-score	0.0695
CO[C@H]1O[C@H](CO)[C@@H](OC(=O)Nc2ccc3c(c2)OCO3)[C@H](OC(=O)Nc2ccccc2-c2ccccc2)[C@@H]1OC(=O)Nc1ccccc1-c1ccccc1	Follistatin-related protein 3 (Homo sapiens) (UniProt O95633)	composite z-score	0.936
